Target: Human immunodeficiency virus type 1 protease (Human immunodeficiency virus 1)
Assay: Inhibitory activity against HIV-1 protease at 100 uM
Residues, ends and D or L forms follow the SMILES beside them.
Exercise: for every item that follows, state its recorded inhibition.
Don't forget the unit after the value.

Worked cases, inhibition given:
stdin: Item CC[C@H](C)[C@H](NC(=O)[C@H](CCC(N)=O)NC(=O)[C@@H]1CCCN1C(C)=O)C(=O)N[C@H](C(=O)N[C@@H](CC(C)C)C(=O)N[C@@H](Cc1c[nH]c2ccccc12)C(=O)N[C@@H](CCC(N)=O)C(=O)O)[C@@H](C)O (Ac-PQITLWQ-OH) has what recorded inhibition?
stdout: 26%

stdin: Okay, and CC[C@H](C)[C@H](NC(=O)[C@H](CCC(N)=O)NC(=O)[C@@H]1CCCN1)C(=O)N[C@H](C(=O)N[C@@H](CC(C)C)C(=O)N[C@@H](Cc1c[nH]c2ccccc12)C(=O)N[C@@H](CCC(N)=O)C(=O)O)[C@@H](C)O (H-PQITLWQ-OH) ?
stdout: 1.3%

Consider the additional compound presented here.
stdin: Item CC(=O)NCC(=O)N[C@@H](CO)C(=O)N[C@H](C(=O)N[C@@H](CC(C)C)C(=O)N[C@@H](CC(N)=O)C(=O)N[C@@H](Cc1ccccc1)C(=O)O)[C@@H](C)O (Ac-GSTLNF-OH) has what recorded inhibition?
stdout: 4.6%

----------
Biological target: Human immunodeficiency virus type 1 protease (Human immunodeficiency virus 1) (UniProt Q72874)
Assay: Inhibitory activity against HIV-1 protease at 100 uM
Residues, ends and D or L forms follow the SMILES beside them.
Tag: 1 if measured inhibition is not below 30%, -1 if it is.

stdin: Check this compound for inhibition at or above 30%: CC(=O)N[C@@H](CO)C(=O)N[C@H](C(=O)N[C@@H](CC(C)C)C(=O)N[C@@H](CC(N)=O)C(=O)N[C@@H](Cc1ccccc1)C(=O)O)[C@@H](C)O (Ac-STLNF-OH)
stdout: 1

New cases:
stdin: Check this compound for inhibition at or above 30%: CC[C@H](C)[C@H](NC(=O)[C@H](CCC(N)=O)NC(=O)[C@@H]1CCCN1C(C)=O)C(=O)N[C@H](C(=O)N[C@@H](CC(C)C)C(=O)N[C@@H](Cc1c[nH]c2ccccc12)C(=O)O)[C@@H](C)O (Ac-PQITLW-OH)
stdout: -1

stdin: Okay, and CC[C@H](C)[C@H](NC(=O)[C@H](CCC(N)=O)NC(=O)[C@@H]1CCCN1)C(=O)N[C@H](C(=O)N[C@@H](CC(C)C)C(=O)N[C@@H](Cc1c[nH]c2ccccc12)C(=O)O)[C@@H](C)O (H-PQITLW-OH) ?
stdout: 1

stdin: Okay, and CC[C@H](C)[C@H](NC(C)=O)C(=O)NCC(=O)N[C@@H](CO)C(=O)N[C@H](C(=O)N[C@@H](CC(C)C)C(=O)N[C@@H](CC(N)=O)C(=O)N[C@@H](Cc1ccccc1)C(=O)O)[C@@H](C)O (Ac-IGSTLNF-OH) ?
stdout: -1

stdin: Okay, and CC(=O)N[C@H](C(=O)N[C@@H](CC(C)C)C(=O)N[C@@H](CC(N)=O)C(=O)N[C@@H](Cc1ccccc1)C(=O)O)[C@@H](C)O (Ac-TLNF-OH) ?
stdout: -1
